// reported log10 of Ki per item
- Target or test system: κOP (Homo sapiens)
- Sequence (P41145 whole entry): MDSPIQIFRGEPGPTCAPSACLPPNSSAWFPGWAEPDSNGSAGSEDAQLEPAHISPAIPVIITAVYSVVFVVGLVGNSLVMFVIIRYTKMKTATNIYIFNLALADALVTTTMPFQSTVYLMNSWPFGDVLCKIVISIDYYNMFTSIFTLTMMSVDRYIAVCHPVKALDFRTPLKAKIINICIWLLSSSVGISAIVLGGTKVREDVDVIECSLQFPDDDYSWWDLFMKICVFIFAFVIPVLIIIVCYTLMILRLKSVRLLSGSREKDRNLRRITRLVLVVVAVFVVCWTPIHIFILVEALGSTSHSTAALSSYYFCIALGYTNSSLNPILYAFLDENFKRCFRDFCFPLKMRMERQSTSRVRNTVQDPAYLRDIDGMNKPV
- Assay conditions: read-out: Binding Ki
// stored as log10 of Ki expressed in nM

compound="C=C[C@H]1CN2CC[C@@]3(O)C(=Nc4cccc(OC)c43)[C@@H]2C[C@@H]1/C(=C\\OC)C(=O)OC [70H PAYN, 7-Hydroxypaynantheine]" reported_endpoint="log10 of Ki" observed=3.87
compound="CC[C@H]1CN2CC[C@@]3(O)C(=Nc4cccc(OC)c43)[C@@H]2C[C@@H]1/C(=C\\OC)C(=O)OC [7OH SPG, 7-hydroxyspeciogynine]" reported_endpoint="log10 of Ki" observed=3.21
compound=CC[C@@H]1CN2CCc3c([nH]c4cccc(OC)c34)[C@H]2C[C@@H]1/C(=C\OC)C(=O)OC reported_endpoint="log10 of Ki" observed=2.77
compound="C=CC1CN2CCC3(Nc4cccc(OC)c4C3=O)C2CC1C(=COC)C(=O)OC (centres unmarked)" reported_endpoint="log10 of Ki" observed=3.12
compound=CC[C@H]1CN2CC[C@]3(Nc4cccc(OC)c4C3=O)[C@@H]2C[C@@H]1/C(=C\OC)C(=O)OC reported_endpoint="log10 of Ki" observed=2.88

Input line: Please tell me: log10 of Ki of C=C[C@H]1CN2CCc3c([nH]c4cccc(OC)c34)[C@@H]2C[C@@H]1/C(=C\OC)C(=O)OC [PAYN, paynantheine, reference compound] , system κOP (Homo sapiens)?
Output line: 3.60

Input line: Please tell me: log10 of Ki of CC[C@H]1CN2CCc3c([nH]c4cccc(OC)c34)[C@@H]2C[C@@H]1/C(=C\OC)C(=O)OC [SPG, speciogynine, reference compound] , system κOP (Homo sapiens)?
Output line: 3.48

Input line: Please tell me: log10 of Ki of CC[C@@H]1CN2CC[C@@]3(O)C(=Nc4cccc(OC)c43)[C@@H]2C[C@@H]1/C(=C\OC)C(=O)OC [7-OH MITRA, 7-hydroxymitragynine, reference compound] , system κOP (Homo sapiens)?
Output line: 1.15
